test system: Amaranthus retroflexus (AMARE); test: Post-emergence biological efficacy, glasshouse pot test; assay type: in vivo; conditions: 312 h, 250 g/ha, after 13 days, 100=total damage, 0=no damage, read-out: Percentage damage caused to weed species AMARE
pest or weed control at 250 g/ha values by entry
Please state the number and follow it with the unit.

Guide cases for pest or weed control at 250 g/ha, answers given:
- SMILES_STRUCTURE: "COC(=O)c1nc(-c2cc3cc(C)ccc3s2)nc(N)c1Cl"
  SYSTEM_UNDER_TEST: "Amaranthus retroflexus (AMARE)"
  pest or weed control at 250 g/ha: "70%"
- SMILES_STRUCTURE: "COC(=O)c1nc(-c2cccnc2OCC(F)(F)F)nc(N)c1Cl"
  SYSTEM_UNDER_TEST: "Amaranthus retroflexus (AMARE)"
  pest or weed control at 250 g/ha: "0%"
- SMILES_STRUCTURE: "COC(=O)c1nc(-c2ncc3ccccn23)nc(N)c1Cl"
  SYSTEM_UNDER_TEST: "Amaranthus retroflexus (AMARE)"
  pest or weed control at 250 g/ha: "30%"

Per the records, this compound ( COC(=O)c1nc(-c2cccnc2F)nc(N)c1Cl ) has pest or weed control at 250 g/ha equal to 0%

Per the records, this compound ( COC(=O)c1nc(-c2ccsc2Cl)nc(N)c1Cl ) has pest or weed control at 250 g/ha equal to 20%
